# target-system: GPR6 (Homo sapiens)
# Construct: expressed in transfected cells; host or cells: CHO cells
# protocol-summary: GPR6 antagonist functional cAMP assay (LANCE Ultra cAMP TR-FRET, CHO cells stably expressing GPR6)
# Assay type: cell-based
# condition-label: CHO cells stably expressing GPR6, cAMP assay (Example 24)
Record form. Attribute: IC50. Fill in for each entry.

Entry CC(C)(O)C(O)c1cc2nc(N3CCC(Oc4ccc(F)cc4F)CC3)c(-c3cnn(C(F)F)c3)nc2cn1 (stereo not shown) : reported IC50 = ?
100 to 1000 nM

Entry CC(=O)N1CCc2nc(N3CCC(Oc4ccc(F)c(F)c4)CC3)c(-c3cnn(C)c3)nc2C1 : reported IC50 = ?
1000 to 30000 nM

Entry CC(=O)N1CCc2nc(N3CCC(Oc4ccc(F)cc4F)CC3)c(-c3cccc(N)n3)nc2C1 : reported IC50 = ?
< 100 nM

Entry Fc1ccc(OC2CCN(c3nc4c(nc3-c3cn[nH]c3)CN(C3COC3)CC4)CC2)c(F)c1 : reported IC50 = ?
100 to 1000 nM

====

Record form. Attribute: IC50. Fill in for each entry.
# target-system: GPR3 (Homo sapiens, UniProt P46089)
# Construct: expressed in transfected cells; host or cells: CHO cells
# Sequence (P46089 whole entry, species assumed): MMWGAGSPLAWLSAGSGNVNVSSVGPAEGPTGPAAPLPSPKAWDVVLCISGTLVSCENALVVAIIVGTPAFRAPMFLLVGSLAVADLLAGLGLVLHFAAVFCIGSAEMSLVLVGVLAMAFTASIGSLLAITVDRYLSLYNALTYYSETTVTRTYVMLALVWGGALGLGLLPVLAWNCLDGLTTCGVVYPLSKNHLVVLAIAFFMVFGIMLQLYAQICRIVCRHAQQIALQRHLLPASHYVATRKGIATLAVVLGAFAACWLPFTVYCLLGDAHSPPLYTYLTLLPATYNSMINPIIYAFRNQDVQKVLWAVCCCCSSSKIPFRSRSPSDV
# protocol-summary: GPR3 antagonist functional cAMP assay (LANCE Ultra cAMP TR-FRET, CHO cells stably expressing GPR3)
# Type: cell-based
# condition-label: CHO cells stably expressing GPR3, cAMP assay

What is its IC50 for GPR3 (Homo sapiens, UniProt P46089)? Entry: CC(=O)N1CCc2nc(N3CCN(Cc4cccc(C#N)c4)CC3)c(-c3cnn(C)c3)nc2C1 [Compound 512]
1000 to 30000 nM

What is its IC50 for GPR3 (Homo sapiens, UniProt P46089)? Entry: CC(=O)N1CCc2nc(N3CCN(Cc4cc(Cl)ccc4F)CC3)c(-c3ccc(F)c(N)n3)nc2C1 [Compound 582]
1000 to 30000 nM

What is its IC50 for GPR3 (Homo sapiens, UniProt P46089)? Entry: CC(=O)N1CCc2nc(N3CCN(Cc4ccc(=O)[nH]c4)CC3)c(-c3cnn(C)c3)nc2C1 [Compound 532]
≥ 30000 nM

What is its IC50 for GPR3 (Homo sapiens, UniProt P46089)? Entry: CCn1cc(-c2nc3cc(C(O)C(C)(C)O)ncc3nc2N2CCC(Oc3ccc(F)cc3F)CC2)cn1 (single isomer, unassigned) [Compound 588]
100 to 1000 nM

====

Record form. Attribute: IC50. Fill in for each entry.
# target-system: GPR6 (Homo sapiens, UniProt P46095)
# Construct: expressed in transfected cells; host or cells: CHO cells
# Sequence (P46095 whole entry): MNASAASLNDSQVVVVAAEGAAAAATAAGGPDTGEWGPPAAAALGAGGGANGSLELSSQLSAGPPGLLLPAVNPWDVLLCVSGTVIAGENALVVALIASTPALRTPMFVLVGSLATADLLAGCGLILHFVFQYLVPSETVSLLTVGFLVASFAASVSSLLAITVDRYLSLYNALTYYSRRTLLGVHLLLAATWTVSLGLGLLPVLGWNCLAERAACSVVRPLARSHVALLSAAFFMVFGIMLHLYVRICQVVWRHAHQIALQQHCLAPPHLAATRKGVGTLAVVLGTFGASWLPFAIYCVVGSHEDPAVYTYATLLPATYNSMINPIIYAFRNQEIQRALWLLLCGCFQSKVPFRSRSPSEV
# protocol-summary: GPR6 antagonist functional cAMP assay (LANCE Ultra cAMP TR-FRET, CHO cells stably expressing GPR6)
# Assay type: cell-based
# condition-label: procedure of Example 24

Entry CCn1cc(-c2nc3cnccc3nc2N2CCC(Oc3cc(Cl)ccc3F)CC2)cn1 [Compound 295] : reported IC50 = ?
< 100 nM

Entry CC(=O)N1CCc2nc(N3CCN(Cc4ccc(Cl)cc4Cl)CC3)c(-c3cnn(C)c3)nc2C1 [Compound 350] : reported IC50 = ?
1000 to 30000 nM

Entry CC(=O)N1CCc2nc(N3CCN(Cc4cc(F)cc(F)c4)CC3)c(-c3cnn(C)c3)nc2C1 [Compound 353] : reported IC50 = ?
1000 to 30000 nM

Entry CCn1cc(-c2nc3cnc(N)cc3nc2N2CCC(Oc3ccc(F)cc3F)CC2)cn1 [Compound 294] : reported IC50 = ?
< 100 nM

Entry CC(=O)N1CCc2nc(N3CCCC(Oc4cccc(F)c4)C3)c(-c3cnn(C)c3)nc2C1 (stereo not shown) [Compound 337] : reported IC50 = ?
≥ 30000 nM

Entry CC(C)(O)[C@@](C)(O)c1cc2nc(-c3cnn(CF)c3)c(N3CCN(Cc4ccc(F)cc4F)CC3)nc2cn1 (single isomer, unassigned) [Compound 711] : reported IC50 = ?
100 to 1000 nM

Entry Fc1ccc(OC2CC=C(c3nc4cnccc4nc3-c3ncco3)CC2)c(F)c1 (stereo not shown) [Compound 304] : reported IC50 = ?
1000 to 30000 nM
